# System: CCRF-CEM leukemia
# Assay Explanation: NCI tumour cell line growth inhibition, 48 h
Measure: TGI

What the record says about `CO[C@H]1C[C@H](O[C@H]2CC[C@@]3(C)[C@H](CC[C@@H]4[C@@H]3CC[C@]3(C)[C@@H](C5=CC(=O)OC5)CC[C@]43O)C2)O[C@H](C)[C@H]1O` : TGI is > 100 µM

Form: molecule = `Cc1csc(NCc2ccc(Cl)cc2)n1` ; TGI = > 100 µM

Per the record, C=C(C)[C@@H]1CC[C@]2(C(=O)O)CC[C@]3(C)[C@H](CC[C@@H]4[C@@]5(C)CCC(N)C(C)(C)[C@@H]5CC[C@]43C)[C@@H]12 (some centres not stated) has TGI of 5.53 µM

Documented TGI of `CCOC(=O)c1c(NS(=O)(=O)c2ccccc2)sc2c1CCCC2` : > 100 µM

Input `N#Cc1ccc2c(-c3ccnc(NC4CC4)n3)c(-c3ccc(F)cc3)nn2c1` . Output TGI: > 25 µM

Entry `O=C1N[C@@H]([C@H]2CC[C@H](Cl)CN2)C(=O)N[C@H]1[C@H]1CC[C@H](Cl)CN1` — recorded TGI = 33.4 µM

Looking up CC[C@H](C)[C@H](NC(=O)CN(C)C)C(=O)N(C)[C@H](C[C@@H](OC(C)=O)c1nc(C(=O)NC23C4C5C2C2C3C4C52C(=O)OC)cs1)C(C)C (some centres not stated) , I see its TGI listed as > 33.2 µM

Note to self: TGI recorded for Cc1ccc([N+](=O)[O-])cc1S(=O)(=O)Nc1ccc(C2=NN(S(=O)(=O)c3cc([N+](=O)[O-])ccc3C)C(c3ccccc3O)C2)cc1 (configuration not stated) was > 100 µM

For this molecule ( COC(=O)C(=O)C(C(=O)C(=O)Nc1cc(C)ccc1C)c1nc2ccccc2[nH]c1=O (configuration not stated) ), measured TGI is > 100 µM

Noted for `CC(=O)[CH-]C(=O)c1ccccc1.CC(=O)[CH-]C(=O)c1ccccc1.Cl.[O-]CCc1ccccn1.[O-]CCc1ccccn1.[Ti+4]` : its TGI reads > 100 µM

Lookup result for NP1(Oc2ccc(F)cc2)=NP(N)(Oc2ccc(F)cc2)=NP(Oc2ccc(F)cc2)(Oc2ccc(F)cc2)=N1 (configuration not stated) ; measured TGI: 18.9 µM

The recorded TGI for entry `CCn1c(=O)nc2n(-c3ccc(SC)cc3)c3ccccc3nc-2c1=O` equals > 100 µM
